Data provenance: the supplement of paper PMC6965134

method_summary: TIMS collisional cross section (CCS, N2) of the lipid ion; higher = larger ion cross section
experimental_parameters: sample type: plasma; ionization mode: positive; one isomer drawn
Respond with Met for TIMS collisional cross section values of 300 Å² and above, Not met for values below.

{"compound": "CCCCC/C=C\\C/C=C\\C/C=C\\C/C=C\\C/C=C\\CCC(=O)OC[C@@H](O)COP(=O)([O-])OCC[N+](C)(C)C [LPC 22:5] (ion (formula + adduct): [C30H52NO7P+H] 1+)", "label": "Not met"}
{"compound": "CCCCCCCC/C=C\\CCCCCCCC(=O)OC[C@@H](COC(=O)CCCCCCCCCCCCCC)OC(=O)CCCCCCCCCCCCCCC [TG 15:0_16:0_18:1] (ion (formula + adduct): [C52H98O6+NH4] 1+)", "label": "Met"}
{"compound": "CC/C=C\\C/C=C\\C/C=C\\C/C=C\\C/C=C\\CCCC(=O)OC[C@@H](O)COP(=O)(O)OCCN [LPE 20:5] (ion (formula + adduct): [C25H42NO7P+H] 1+)", "label": "Not met"}
{"compound": "CCCCC/C=C\\C/C=C\\C/C=C\\C/C=C\\CCCC(=O)O[C@@H](CO)COC(=O)CCCCCCC/C=C\\C/C=C\\CCCCC [DG 18:2_20:4_0:0] (ion (formula + adduct): [C41H68O5+NH4] 1+)", "label": "Not met"}
